The reported numbers originate from patent US7335645B2.

- MEASURED ON: PepT1 (Oryctolagus cuniculus, UniProt P36836)
- Construct: expressed in transfected cells
- Sequence (P36836 whole entry): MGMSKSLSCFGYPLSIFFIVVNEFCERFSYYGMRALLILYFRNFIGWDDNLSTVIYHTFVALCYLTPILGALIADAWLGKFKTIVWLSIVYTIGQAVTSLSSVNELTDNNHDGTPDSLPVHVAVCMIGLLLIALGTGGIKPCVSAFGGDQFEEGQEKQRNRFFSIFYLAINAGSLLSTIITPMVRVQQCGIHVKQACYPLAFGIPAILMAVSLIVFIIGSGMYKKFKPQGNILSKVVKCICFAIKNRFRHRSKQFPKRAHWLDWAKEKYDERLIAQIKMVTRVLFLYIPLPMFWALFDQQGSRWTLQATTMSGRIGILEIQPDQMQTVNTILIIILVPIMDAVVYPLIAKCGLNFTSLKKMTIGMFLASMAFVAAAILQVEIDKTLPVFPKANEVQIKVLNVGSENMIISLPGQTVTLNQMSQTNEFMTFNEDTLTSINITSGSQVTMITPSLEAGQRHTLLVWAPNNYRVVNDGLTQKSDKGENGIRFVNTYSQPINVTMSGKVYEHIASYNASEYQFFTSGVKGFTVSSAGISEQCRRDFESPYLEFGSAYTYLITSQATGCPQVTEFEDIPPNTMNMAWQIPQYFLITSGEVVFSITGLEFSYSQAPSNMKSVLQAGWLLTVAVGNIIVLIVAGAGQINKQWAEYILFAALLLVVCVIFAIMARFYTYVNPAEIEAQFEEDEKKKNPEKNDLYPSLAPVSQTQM
- PROTOCOL: Inhibition of 3H-D-Phe-Ala binding to PepT1-expressing P. pastoris cells
- COND: read-out: EC50: effective concentration inhibiting the binding of 3H-D-Phe-Ala to PepT1-expressing P. pastoris cells by 50%
ASSAY READOUT: EC50 (µM)
The reply should contain only the number, in µM.

Memo: NC(CCC(=O)O)C(=O)N1CCSC1 (stereo not shown) , reported EC50: 1100
